# Test System: T1, hArtemin-MMH (human)
# T1 construct: also called hARTN.mmh; hARTN (A108-G220).mmh
# T1 chain: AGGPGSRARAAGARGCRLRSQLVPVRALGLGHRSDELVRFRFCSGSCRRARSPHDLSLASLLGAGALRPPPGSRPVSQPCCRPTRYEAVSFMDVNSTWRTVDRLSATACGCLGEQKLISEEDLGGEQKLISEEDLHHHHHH
# Experiment Summary: BLI (Octet HTX), mAb captured on AHC tips, artemin at 3.75 nM, 25 C
Measurement Label: Artemin Binding Response (nm)
The reply should contain only the number, in nm.

Inquiry: Please give the measured Artemin Binding Response (nm) for this binder: H4H33336P (antibody, human IgG4 S228P, kappa, V domains shown, Fully human antibody; also called Artemin mAb; anti-ARTN antibody) VH: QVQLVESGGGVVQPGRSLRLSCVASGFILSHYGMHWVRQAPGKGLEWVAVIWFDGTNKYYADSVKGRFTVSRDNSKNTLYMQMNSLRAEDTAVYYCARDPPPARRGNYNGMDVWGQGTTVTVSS VL: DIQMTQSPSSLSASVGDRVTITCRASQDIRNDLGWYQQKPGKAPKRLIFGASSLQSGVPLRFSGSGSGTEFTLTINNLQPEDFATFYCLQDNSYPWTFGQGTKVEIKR
Reply text: 0.03

Inquiry: I would be grateful if you could share the reported Artemin Binding Response (nm) for H4H33331P (antibody, human IgG4 S228P, kappa, V domains shown, Fully human antibody (human variable and constant domains) from a VELOCIMMUNE mouse; also called Artemin mAb; anti-ARTN antibody) VH: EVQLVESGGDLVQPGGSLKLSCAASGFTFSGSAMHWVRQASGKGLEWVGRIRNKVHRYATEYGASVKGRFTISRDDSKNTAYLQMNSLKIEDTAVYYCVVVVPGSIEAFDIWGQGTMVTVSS VL: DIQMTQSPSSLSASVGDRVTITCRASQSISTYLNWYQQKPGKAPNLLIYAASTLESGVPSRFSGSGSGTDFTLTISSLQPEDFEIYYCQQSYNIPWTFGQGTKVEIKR .
Reply text: 0.02

Inquiry: Which Artemin Binding Response (nm) is listed for H4H33349P (antibody, human IgG4 S228P, kappa, V domains shown, Fully human antibody; also called Artemin mAb; anti-ARTN antibody) VH: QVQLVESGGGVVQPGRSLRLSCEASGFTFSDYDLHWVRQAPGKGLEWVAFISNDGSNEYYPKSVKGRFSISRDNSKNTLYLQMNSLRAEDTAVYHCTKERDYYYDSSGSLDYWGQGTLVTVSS VL: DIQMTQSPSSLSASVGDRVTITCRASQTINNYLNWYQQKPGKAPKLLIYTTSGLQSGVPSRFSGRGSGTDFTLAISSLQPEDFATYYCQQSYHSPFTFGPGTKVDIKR ?
Reply text: 0.07
